All figures here come from the supplement of paper PMC8975748.

- Tested on: Saccharomyces cerevisiae BY4741 SeMeCo community
- assaySummary: z-score of subpopulation abundance vs DMSO median, subpopulation auxotrophic for HUM; higher = larger share of this subpopulation than in DMSO controls
- experimentalSetup: 10 µM; 24 h; SM minimal medium; subpopulation (auxotrophy): HUM
Counter-ions that a name gives are not always drawn.
quantityName: z-score of subpopulation abundance

- compound: "Cc1ncc([N+](=O)[O-])n1CC(O)CCl (stereo not given) [Ornidazole]"
  reportedResult: 0.44
- compound: "C#C[C@]1(O)CC[C@H]2[C@@H]3CCC4=CC(=O)CC[C@@H]4[C@H]3CC[C@@]21CC [Levonorgestrel]"
  reportedResult: -0.08
- compound: "C[n+]1ccccc1/C=N/O [Pralidoxime chloride]"
  reportedResult: 0.39
- compound: "CC1(C)S[C@@H]2[C@H](NC(=O)[C@H](C(=O)O)c3ccsc3)C(=O)N2[C@H]1C(=O)O [Ticarcillin sodium]"
  reportedResult: 0.83
- compound: "CCCOc1ccc(C(=O)OCCN(CC)CC)cc1N [Proparacaine HCl]"
  reportedResult: -0.66
- compound: "CN1C(C(=O)Nc2ccccn2)=C(O)c2ccccc2S1(=O)=O [Piroxicam]"
  reportedResult: -0.89
- compound: "CC1(C)S[C@@H]2[C@H](NC(=O)COc3ccccc3)C(=O)N2[C@H]1C(=O)O [Penicillin V potassium salt]"
  reportedResult: -0.23
- compound: "Nc1nc(O)c2ncn(CCC(CO)CO)c2n1 [Penciclovir]"
  reportedResult: 0.59
- compound: "O=C(O)c1cc(=O)c2c(OCC(O)COc3cccc4oc(C(=O)O)cc(=O)c34)cccc2o1 [Disodium Cromoglycate]"
  reportedResult: -0.62
- compound: "CN[C@H]1CC[C@@H](c2ccc(Cl)c(Cl)c2)c2ccccc21 [Sertraline HCl]"
  reportedResult: -0.4
- compound: "CC1=C(C(=O)OCCN(Cc2ccccc2)c2ccccc2)C(c2cccc([N+](=O)[O-])c2)C(P2(=O)OCC(C)(C)CO2)=C(C)N1 (stereo not given) [Efonidipine]"
  reportedResult: 1.54
- compound: "Cc1cnc(NC(=O)C2=C(O)c3ccccc3S(=O)(=O)N2C)s1 [Meloxicam]"
  reportedResult: -0.88
- compound: "Clc1ccc(CCC(Cn2ccnc2)Sc2c(Cl)cccc2Cl)cc1 (stereo not given) [Butoconazole nitrate]"
  reportedResult: 5.03
- compound: "O=C1[C@@H]2[C@H]3CC[C@H](C3)[C@@H]2C(=O)N1C[C@@H]1CCCC[C@H]1CN1CCN(c2nsc3ccccc23)CC1 [lurasidone]"
  reportedResult: -0.45
- compound: "CC[C@H]1OC(=O)[C@H](C)[C@@H](O[C@H]2C[C@@](C)(OC)[C@@H](O)[C@H](C)O2)[C@H](C)[C@@H](O[C@@H]2O[C@H](C)C[C@H](N(C)C)[C@H]2O)[C@](C)(O)C[C@@H](C)CN[C@H](C)[C@@H](O)[C@]1(C)O [Azathramycin]"
  reportedResult: 0.01

---

- Tested on: Saccharomyces cerevisiae BY4741 SeMeCo community
- assaySummary: z-score of prototroph abundance vs DMSO median; higher = larger share of this subpopulation than in DMSO controls
- experimentalSetup: 10 µM; 24 h; SM minimal medium; subpopulation (auxotrophy): Prototroph
Listing of recorded z-score of prototroph abundance by entry.
quantityName: z-score of prototroph abundance

- compound: "CS(=O)(=O)Nc1ccc([N+](=O)[O-])cc1Oc1ccccc1 [Nimesulide]"
  testedTarget: "Saccharomyces cerevisiae BY4741 SeMeCo community"
  quantityName: "z-score of prototroph abundance"
  reportedResult: 0.12
- compound: "COC(=O)C1=C(C)NC(C)=C(C(=O)OCCN2CCN(C(c3ccccc3)c3ccccc3)CC2)C1c1cccc([N+](=O)[O-])c1 (configuration not stated) [Manidipine 2HCl]"
  testedTarget: "Saccharomyces cerevisiae BY4741 SeMeCo community"
  quantityName: "z-score of prototroph abundance"
  reportedResult: -1.31
- compound: "Cc1ncc([N+](=O)[O-])n1CCOC(=O)c1ccccc1 [Metronidazole Benzoate]"
  testedTarget: "Saccharomyces cerevisiae BY4741 SeMeCo community"
  quantityName: "z-score of prototroph abundance"
  reportedResult: 0.95
- compound: "CCCN[C@H]1CCc2nc(N)sc2C1 [Pramipexole 2HCl Monohydrate]"
  testedTarget: "Saccharomyces cerevisiae BY4741 SeMeCo community"
  quantityName: "z-score of prototroph abundance"
  reportedResult: 0.72
- compound: "NCC[C@H](O)C(=O)N[C@@H]1C[C@H](N)[C@@H](O[C@H]2O[C@H](CN)[C@@H](O)[C@H](O)[C@H]2O)[C@H](O)[C@H]1O[C@H]1O[C@H](CO)[C@@H](O)[C@H](N)[C@H]1O [Amikacin hydrate]"
  testedTarget: "Saccharomyces cerevisiae BY4741 SeMeCo community"
  quantityName: "z-score of prototroph abundance"
  reportedResult: 0.26
- compound: "OCCOc1ccc(/C(=C(/CCCl)c2ccccc2)c2ccccc2)cc1 [Ospemifene]"
  testedTarget: "Saccharomyces cerevisiae BY4741 SeMeCo community"
  quantityName: "z-score of prototroph abundance"
  reportedResult: 0.59
- compound: "O=C(c1ccc(OCCN2CCCCC2)cc1)c1c(-c2ccc(O)cc2)sc2cc(O)ccc12 [Raloxifene]"
  testedTarget: "Saccharomyces cerevisiae BY4741 SeMeCo community"
  quantityName: "z-score of prototroph abundance"
  reportedResult: 0.7

---

- Tested on: Saccharomyces cerevisiae BY4741 SeMeCo community
- assaySummary: z-score of subpopulation abundance vs DMSO median, subpopulation auxotrophic for HLM; higher = larger share of this subpopulation than in DMSO controls
- experimentalSetup: 10 µM; 24 h; SM minimal medium; subpopulation (auxotrophy): HLM
Structures can show the parent of a compound that is named as a salt.
Returns one of label 1 or label 0; label 1 when z-score of subpopulation abundance is >= -0.3.

- compound: "Cc1nnc(NS(=O)(=O)c2ccc(N)cc2)s1 [Sulfamethizole]"
  assignedClass: "label 0"
- compound: "CCC(=O)c1c(O)cc(O)cc1O [Flopropione]"
  assignedClass: "label 1"
- compound: "CCCCNC(=O)NS(=O)(=O)c1ccc(C)cc1 [Tolbutamide]"
  assignedClass: "label 1"
- compound: "COCC1=C(C(=O)OC(C)OC(=O)OC(C)C)N2C(=O)[C@@H](NC(=O)/C(=N\\OC)c3csc(N)n3)[C@H]2SC1 (stereo partly drawn) [Cefpodoxime proxetil]"
  assignedClass: "label 1"
- compound: "CC(=O)N1CCN(c2ccc(OCC3COC(Cn4ccnc4)(c4ccc(Cl)cc4Cl)O3)cc2)CC1 (stereo not drawn) [Ketoconazole]"
  assignedClass: "label 0"
- compound: "C=CC(C)(O)CCC=C(C)C (stereo not drawn) [Linalool]"
  assignedClass: "label 1"
- compound: "C(=C\\c1ccccc1)/CN1CCN(C(c2ccccc2)c2ccccc2)CC1 [Cinnarizine]"
  assignedClass: "label 0"
- compound: "Cc1c(C)c2c(c(C)c1O)CCC(C)(CCCC(C)CCCC(C)CCCC(C)C)O2 (stereo not drawn) [Vitamin E]"
  assignedClass: "label 0"
- compound: "O=c1cc(-c2ccc(O)c(O)c2)oc2cc(O)cc(O)c12 [Luteolin]"
  assignedClass: "label 0"
- compound: "CC1(C)S[C@@H]2[C@H](NC(=O)C(C(=O)O)c3ccccc3)C(=O)N2[C@H]1C(=O)O (stereo partly drawn) [Carbenicillin disodium]"
  assignedClass: "label 0"
- compound: "COc1ccc(-c2nc3cc(C4=NNC(=O)CC4C)ccc3[nH]2)cc1 (stereo not drawn) [Pimobendan]"
  assignedClass: "label 1"
- compound: "Cc1cc(O)cc(C)c1Cl [Chloroxylenol]"
  assignedClass: "label 1"
- compound: "COc1cc2c(cc1OC)C(=O)C(CC1CCN(Cc3ccccc3)CC1)C2 (stereo not drawn) [Donepezil]"
  assignedClass: "label 1"
- compound: "COc1ccc2c(c1)c(CC(=O)O)c(C)n2C(=O)c1ccc(Cl)cc1 [Indomethacin]"
  assignedClass: "label 0"
- compound: "CC(C)N1CCN(c2ccc(OCC3COC(Cn4cncn4)(c4ccc(Cl)cc4Cl)O3)cc2)CC1 (stereo not drawn) [Terconazole]"
  assignedClass: "label 0"
- compound: "COc1ccc(CNc2nc(N3CCC[C@H]3CO)ncc2C(=O)NCc2ncccn2)cc1Cl [Avanafil]"
  assignedClass: "label 0"
- compound: "CCN(CC)CC#CCOC(=O)C(O)(c1ccccc1)C1CCCCC1 (stereo not drawn) [Oxybutynin chloride]"
  assignedClass: "label 1"
- compound: "COc1ccc(C(C)=O)c(O)c1 [Paeonol]"
  assignedClass: "label 1"
- compound: "Cc1onc(-c2ccccc2)c1C(=O)N[C@@H]1C(=O)N2[C@@H]1SC(C)(C)[C@@H]2C(=O)O [Oxacillin sodium monohydrate]"
  assignedClass: "label 0"
- compound: "CCC(C)(Oc1ccc(C2(c3ccc(OC(C)(CC)C(=O)O)cc3)CCCCC2)cc1)C(=O)O (stereo not drawn) [Clinofibrate]"
  assignedClass: "label 1"
- compound: "CN(Cc1ccc(C(C)(C)C)cc1)Cc1cccc2ccccc12 [Butenafine HCl]"
  assignedClass: "label 0"
- compound: "CCCc1nn(C)c2c(=O)[nH]c(-c3cc(S(=O)(=O)N4CCN(C)CC4)ccc3OCC)nc12 [Sildenafil Mesylate]"
  assignedClass: "label 0"
- compound: "CC(C)[C@H]1CC[C@H](C(=O)N[C@H](Cc2ccccc2)C(=O)O)CC1 [Nateglinide]"
  assignedClass: "label 1"
- compound: "COC(=O)Nc1nc2cc([S+]([O-])c3ccccc3)ccc2[nH]1 (stereo not drawn) [Oxfendazole]"
  assignedClass: "label 0"
- compound: "COc1ccc(C2CNC(=O)C2)cc1OC1CCCC1 (stereo not drawn) [Rolipram]"
  assignedClass: "label 0"
- compound: "CCCCCOc1ccc(-c2cc(-c3ccc(C(=O)N[C@H]4C[C@@H](O)[C@@H](O)NC(=O)[C@@H]5[C@@H](O)[C@@H](C)CN5C(=O)[C@H]([C@H](O)CC(N)=O)NC(=O)[C@H]([C@H](O)[C@@H](O)c5ccc(O)c(OS(=O)(=O)O)c5)NC(=O)[C@@H]5C[C@@H](O)CN5C(=O)[C@H]([C@@H](C)O)NC4=O)cc3)no2)cc1 [Micafungin Sodium]"
  assignedClass: "label 1"
- compound: "CC(Cc1ccc(O)c(O)c1)C(C)Cc1ccc(O)c(O)c1 (stereo not drawn) [Nordihydroguaiaretic acid (NDGA)]"
  assignedClass: "label 0"
- compound: "CC(N)C12CC3CC(CC(C3)C1)C2 (stereo not drawn) [Rimantadine]"
  assignedClass: "label 1"
- compound: "O=C(O)C1=C(CSc2nnnn2CS(=O)(=O)O)CS[C@@H]2[C@H](NC(=O)[C@H](O)c3ccccc3)C(=O)N12 [Cefonicid sodium]"
  assignedClass: "label 1"
- compound: "OC(c1cc(C(F)(F)F)nc2c(C(F)(F)F)cccc12)C1CCCCN1 (stereo not drawn) [Mefloquine HCl]"
  assignedClass: "label 1"
- compound: "CN(C)CCC=C1c2ccccc2C=Cc2ccccc21 [Cyclobenzaprine HCl]"
  assignedClass: "label 1"
- compound: "NCCc1ccc(O)c(O)c1 [Dopamine HCl]"
  assignedClass: "label 0"
